Record form. Attribute: IC50. Fill in for each entry.
Target: HIV-1 RT (Human immunodeficiency virus type 1 group M subtype B)
Experiment: HIV Reverse Transcriptase Assay: Inhibitor IC50 Determination
Settings: purified recombinant enzyme, poly(rA)/oligo(dT)16 template-primer, 37° C. 30 min
Give bare numbers, in nM.

N#Cc1cc(C#N)cc(Oc2ccc(CC(=O)Nc3ccc(S(N)(=O)=O)cc3Br)cc2Cl)c1 [Compound I-21]; 159
Cc1cc(S(N)(=O)=O)ccc1NC(=O)Cc1ccc(Oc2cc(Cl)cc(C#N)c2)c(Cl)c1 [Compound I-38]; 806

// for each compound in input: emit IC50
1. Cc1cc(S(N)(=O)=O)ccc1NC(=O)Cc1ccc(Oc2ccc(C#N)cc2C)c(Cl)c1 [Compound I-43]
2. Cc1c(CC(=O)Nc2ccc(S(N)(=O)=O)cc2)ccc(Oc2cc(Cl)cc(C#N)c2)c1C [Compound I-65]
3. N#Cc1cc(Oc2ccc(CC(=O)Nc3ccc(S(N)(=O)=O)cc3Br)cc2Br)cc(C(F)F)c1 [Compound I-64]
4. COc1cc(CC(=O)Nc2ccc(S(N)(=O)=O)cc2C)ccc1Oc1cc(Cl)cc(C#N)c1 [Compound I-51]
5. N#Cc1cc(Cl)cc(Oc2ccc(CC(=O)Nc3ccc(S(N)(=O)=O)cc3Cl)cc2Br)c1 [Compound I-48]

1: 695; 2: 3120; 3: 61.2; 4: 1800; 5: 19.1

---

Biological target: HIV-1 RT (Human immunodeficiency virus type 1 group M subtype B)
Experiment: HIV Reverse Transcriptase Assay: Inhibitor IC50 Determination
Conditions: purified recombinant enzyme, poly(rA)/oligo(dT)16 template-primer, 37° C. 30 min
Record form. Attribute: pIC50. Fill in for each entry.
Numbers only, as −log10 of the molar value.

Examples with answers:
O=C(Cc1ccc(Oc2cc(Cl)ccc2Br)c(Cl)c1)Nc1ccccc1Cl [Compound I-6]; 6.77
N#Cc1cc(Oc2ccc(CC(=O)Nc3ccc(S(N)(=O)=O)cc3Cl)cc2Br)cc(C(F)F)c1 [Compound I-63]; 7.27
N#Cc1cc(Cl)cc(Oc2ccc(CC(=O)Nc3ccc(S(N)(=O)=O)cc3)cc2Br)c1 [Compound I-46]; 5.22

Now take the following molecule into account.
Measured pIC50 of COc1cc(CC(=O)Nc2ccc(S(N)(=O)=O)cc2Br)ccc1Oc1cc(Cl)cc(C#N)c1 [Compound I-53] : 6.40

---

Molecular target: HIV-1 RT (Human immunodeficiency virus type 1 group M subtype B, UniProt P03366)
Test: HIV Reverse Transcriptase Assay: Inhibitor IC50 Determination
Settings: purified recombinant enzyme, poly(rA)/oligo(dT)16 template-primer, 37° C. 30 min
measured-attribute: IC50 (nM)
Answers are plain numbers, in nM.

Examples with answers:
COc1cc(CC(=O)Nc2ccc(S(N)(=O)=O)cc2C)ccc1Oc1ccc(C#N)cc1C; 2440
Cc1cc(C#N)ccc1Oc1ccc(CC(=O)Nc2ccc(S(N)(=O)=O)cc2Br)c(C)c1C; 202
Cc1cc(S(N)(=O)=O)ccc1NC(=O)Cc1ccc(Oc2cc(C#N)ccc2Cl)c(Cl)c1; 395

Now take the following compound into account.
Measured IC50 of Cc1cc(S(N)(=O)=O)ccc1NC(=O)Cc1ccc(Oc2ccc(C#N)cc2C)c(C)c1C : 252

---

measured-attribute: melting point

N#Cc1cc(Cl)cc(Oc2ccc(CC(=O)Nc3ccc(S(N)(=O)=O)cc3Cl)cc2Br)c1; 205 to 207.3 °C
Cc1cc(S(N)(=O)=O)ccc1NC(=O)Cc1ccc(Oc2cc(Cl)cc(C#N)c2)c(Br)c1; 214.6 to 215.9 °C
N#Cc1cc(Cl)cc(Oc2ccc(CC(=O)Nc3ccc(CS(N)(=O)=O)cc3)cc2Br)c1; 133.4 to 135.3 °C

Now take the following compound into account.
Measured melting point of N#Cc1cc(Cl)cc(Oc2ccc(CC(=O)Nc3ccc(S(N)(=O)=O)cc3Br)cc2Br)c1 : 168.1 to 170.4 °C

meta.source: patent US7388111B2
